Test system: ADX cells
Test: MTT cell survival assay in MDR ADX cells
Type: cell-based, Chinese hamster
Conditions: Cricetulus griseus, ADX cells, without sphingomyelinase
endpoint.name: EC50 (µM)
Reply numerically in µM, unit not repeated.

Problem: I am curious: what EC50 value has been reported for `COc1cccc2c1C(=O)c1c(O)c3c(c(O)c1C2=O)C[C@@](O)(C(C)=O)C[C@@H]3O[C@H]1C[C@H](N)[C@H](O)[C@H](C)O1` ?
Result: 92

###

Test: Doxorubicin MTD studies in mice
Settings: mouse, in vivo, intravenous, 8 mg/kg
endpoint.name: MTD at 3 weeks (mg/kg)
# output: bare number, implied unit mg/kg

Problem: Given the entry `COc1cccc2c1C(=O)c1c(O)c3c(c(O)c1C2=O)C[C@@](O)(C(=O)CO)C[C@@H]3O[C@H]1C[C@H](N)[C@H](O)[C@H](C)O1` , report its measured MTD at 3 weeks.
Result: 24
